# test.system: 4'-phosphopantetheinyl transferase ffp (Bacillus subtilis) (UniProt Q9F4F7)
# experiment: qHTS Assay for Inhibitors of Bacillus subtilis Sfp phosphopantetheinyl transferase (PPTase);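 further: the enzyme is Sfp with the accession as filed and its product quenches rhodamine fluorescence; 0% = enzyme reaction without inhibitor and -100% = no enzyme wells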
# particulars: Biochemical Sfp PPTase activity
About 11,000 (3.5%) of roughly 310,000 compounds were called active. About 4% were inconclusive and are not listed. The full list was thinned out, with actives kept by preference.
Examples of molecules with documented largest response in the series, negative = inhibition follow.
Enter your answer as a number in %; do not include the unit.

Known largest response in the series, negative = inhibition results, listed for orientation:
O=C(Cc1ccc(Cl)cc1)NC1CCS(=O)(=O)C1 (configuration not stated) :: 11.6
COc1ccc(C2(C#N)CCC(C(=O)O)CC2)cc1OC1CCCC1 (configuration not stated) :: 3.3
CC(C)C(=O)Nc1ccc(C(=O)NNC(=O)c2cccs2)cc1 :: -14.7
CC/C=C/C(=O)N1CC2(CC(c3cccc(NC(=O)CC)c3)=NO2)C[C@H]1C(N)=O (some centres not stated) :: -8.44
COc1ccc(C2=NN(C(C)=O)C(c3ccccc3)C2)cc1 (configuration not stated) :: 9.33

Which largest response in the series, negative = inhibition value is on record for CN1CCN(C(=O)C2C3C=CC(C3)C2C(=O)O)CC1 (configuration not stated) ?
-2.06

Which largest response in the series, negative = inhibition value is on record for CC(C)(C)NCC(O)COc1cccc2[nH]c(=O)[nH]c12 (configuration not stated) ?
6.07

Which largest response in the series, negative = inhibition value is on record for O=C(CCNC(=O)C1CCN(S(=O)(=O)c2ccccc2)CC1)NC1CC1 ?
5.65

Which largest response in the series, negative = inhibition value is on record for COC(=O)CCc1ccccc1S(=O)(=O)N(CCC(=O)OC)Cc1ccccc1 ?
-14.7

Which largest response in the series, negative = inhibition value is on record for COc1ccc(C2(O)C(=O)Nc3ccccc32)cc1 (configuration not stated) ?
5.11

Which largest response in the series, negative = inhibition value is on record for Cc1cc([N+](=O)[O-])ccc1NC(=O)c1ccc(NC(=O)C(C)C)cc1 ?
6.44

Which largest response in the series, negative = inhibition value is on record for N#C/C(=C/c1ccc(-c2ccccc2[N+](=O)[O-])o1)C(=O)NCCN1CCCCC1 ?
-17.3

Which largest response in the series, negative = inhibition value is on record for NS(=O)(=O)c1ccc(NC(=S)NC(=O)c2cccc(Br)c2)cc1 ?
-13.6
